Assay: Plasma D-serine during chronic, sustained drinking (capillary electrophoresis)
Assay type: in vivo, mice
Conditions: mouse, plasma, oral; 12.6 mg/mL drinking solution; 2 weeks choice then 2 weeks exclusive drinking; read-out: basal D-serine plasma level
OUTCOME_MEASURE: concentration at 4 weeks

Task item: May I ask what concentration at 4 weeks has been recorded for N[C@H](CO)C(=O)O ?
Reply: 400 to 600 µM
